Experiment: protein stability index of a GFP-peptide fusion (GPS, HEK-293T) (PSI 1-6); higher = more stable;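 also: 24-mer peptide tiles fused after GFP, lentivirally expressed, FACS-sorted into six equal bins by GFP/DsRed ratio, decoded by Illumina sequencing, PSI is the read-weighted mean bin number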
Conditions: treatment: MLN4924 1 uM, 8 h; c terminus: a fixed tail appended
# binarize protein stability index: threshold 4 inclusive, high side T, low side F

Look over these answered cases.
construct sequence	class label
GLSAGYVDAGAEPGRSRMISQEEF [LPCAT4]	T
GTLDNSKSMKPYNYCSAYESFYES [NEUROD6]	F
RWSSDLNKHLTTHQGIKPYKCSWC [ZNF75A]	F
ARGEDRAGPQSPSPGAPPAAKPAR [TSPAN10]	T
SHGYDMSTFIRRYSRYLNEKAFSY [SNAP91]	F

hey, is protein stability index for this one >= 4? SIQMNVAEVSWEPGRREGCDICAG [RPS21]
F

Also AALKQAIKDKEAPLHVAQTRLYLR [TEKT4] , if possible.
F

Also GDSDSALDSVSPCPSSPKQIHLDV [DLC1] , if possible.
T

Also TNSSSLRLPRQNSDGGQKNKPREH [WSB1] , if possible.
T

Also VSAEGSHPDPAPFCADNPSELPPP [DVL3] , if possible.
T

Also FAIGVCTGLVGLFVDFFVRLFTQL [CLCN6] , if possible.
F

Also LPLPPPPPEPLSQVSMWDQRWQDH [APBB1IP] , if possible.
F

Also FWKKYRTFWKEDKAFWKEDNALWE [CCDC70] , if possible.
F

Also QQIAMDPEEVKSLDSNGAGEKSEN [BCL2L13] , if possible.
T

Also LDTGTNYDYVREFKRSTGTWHHTK [GAN] , if possible.
F

Also TVCDDKWDLVSASVVCRELGFGSA [LOXL2] , if possible.
F

---

Assay: protein stability index of a GFP-peptide fusion (GPS, HEK-293T) (PSI 1-6); higher = more stable
Settings: treatment: MLN4924 1 uM, 8 h; c terminus: a fixed tail appended
# binarize protein stability index: threshold 4 inclusive, high side label 1, low side label 0

construct sequence	class label
SGADTAKCGIHSMFPLHLAALNAH [ANKRD44]	label 0
CPWHYLHLSGSHNTLAPTCFKAKL [RSPH3]	label 0
RQSGDRRQLPPPPTPANEERRGGL [WAS]	label 1
EERFRPLTFHGLILRSQLVTLLVR [CLCN6]	label 0

Pending sequence:
hey, is protein stability index for this one >= 4? QQAGLLVTGEKEEPSRSASEADSE [PPEF2]
label 1

---

Assay: protein stability index of a GFP-peptide fusion (GPS, HEK-293T) (PSI 1-6); higher = more stable
Settings: treatment: DMSO; c terminus: a fixed tail appended
Parameter class (string): assigned from measured protein stability index. Ranges: lower bin = under 3, middle bin = from 3 up to 4, upper bin = 4 and over

Look over these answered cases.
construct sequence	class label
LHDRGAQVIHPQEFRRWRDTGVAF [DNAAF3]	lower bin
IMNFIDIVAIIPYFITLGTEIAEQ [KCNA1]	middle bin

Into which category would you place GEKPYECQDCGRAFNQNSSLGRHK [ZNF8] ?
middle bin

Also LLEATGGAAGRSHHLDEDEERERI [KCTD10] , if possible.
upper bin

Also RNIHRHVILSEIKEAVAALPPDVT [TCF25] , if possible.
middle bin

Also TQCSEEDQCKINKQIYNLIHLDPR [FEM1B] , if possible.
middle bin

Also NLANCERLIEVEDMMVMGRKPDPM [SMTNL2] , if possible.
middle bin

Also PQEPRPPKRATKPKKAPKREKSAP [CPXM2] , if possible.
upper bin

Also IDNANRILGPAYFVTYVFFVFFVL [PKD2L1] , if possible.
lower bin

Also YHPVKIGDLFNGRYHVIRKLGWGH [SRPK2] , if possible.
lower bin

Also LQDGNLRAPHKESTLPRSGSSGGQ [CHCHD6] , if possible.
upper bin

Also IDQWSMLGDMQTAREGAGLVVASG [KLHL12] , if possible.
middle bin

Also SGSESPSDSGKDLPEPSKRGPPHG [MYCL] , if possible.
upper bin

Also AFHRKSHSLDLNISEKLTLLPTLY [RNF180] , if possible.
lower bin

Also LPLPPPPPEPLSQVSMWDQRWQDH [APBB1IP] , if possible.
middle bin

Also FPAEQYYRFHEHWRFVLQRLVFLA [TSN] , if possible.
lower bin

Also TLFKKIQALQKEKETLAVNYEKEE [CCDC6] , if possible.
middle bin

---

Consider the following sequences and their measured protein stability index readings.
Experiment: protein stability index of a GFP-peptide fusion (GPS, HEK-293T) (PSI 1-6); higher = more stable
Details: treatment: DMSO; c terminus: a fixed tail appended
Please give the numeric answer without any surrounding text.

Observe how each entry below is paired with its result.
construct sequence	reported value
SNEQLKVTQEPRAKKGRRNQSVEP [ZMYND11]	5.2
LRQEMVNLRATDVRLMRQLLVINE [LURAP1L]	2.35

Here is another sequence to look at.
# get_value(readout='protein stability index', item= SPGLSYASHTVGFTPPTSLTRAGM [CCDC6] )
3.01

---

Assay: protein stability index of a GFP-peptide fusion (GPS, HEK-293T) (PSI 1-6); higher = more stable
Conditions: treatment: DMSO; c terminus: a fixed tail appended
measure: protein stability index
Please give the numeric answer without any surrounding text.

Observe how each entry below is paired with its result.
construct sequence	reported value
PLAQNERCLHMFLQDEIIDKSYTP [SNX3]	2.97
YQKAAEEVEAKFKRYESHPVCADL [CHCHD3]	4.26
PATHLSPALAPVPRNSCITCPQCH [TRIM9]	3.82
TFKSLSHIDPDVLYPSLNVTSFDS [ALG2]	2.77
KRAPGEETEKEEEEEDREEEDENG [NEUROD6]	5.6

# get_value(readout='protein stability index', item= KESLCAKEEKCQGKGDDSETDKNN [KCNA4] )
5.62

Also SDYFCAMFTSELSEKGKPYVDIQG [KLHL12] , if possible.
2.53

Also PNVIDNFLCDLYPLLKLACTNTYV [OR4A15] , if possible.
2.87

Also EKDQEQVVMNLDSRLLIFPLYICC [GMCL1] , if possible.
2.74

Also ADSGNFKRCINLWKYALDMQQSNL [FEM1C] , if possible.
2.15

Also KIEIQTLTGLFKGDKCHSLVGKPK [CASP6] , if possible.
3.01

Also LVSIRNNRNLQKFSLFGDISVLQQ [FBXO33] , if possible.
2.17

---

Test: protein stability index of a GFP-peptide fusion (GPS, HEK-293T) (PSI 1-6); higher = more stable
Settings: treatment: MLN4924 1 uM, 8 h; c terminus: a fixed tail appended
Consider the following sequences and their measured protein stability index readings.
Please give the numeric answer without any surrounding text.

Observe how each entry below is paired with its result.
construct sequence	measure	reported value
NHAPLREQGAIPRLVQLLVRAHQD [CTNNB1]	protein stability index	2.91
APRFSFNDPSGSEEADFLSAETGS [IRX6]	protein stability index	5.33
SHLLVAEPEKIYAMPDPTVPDSDI [ESRRG]	protein stability index	5.08
PWSLFDVLVEKYGWPHEDAAQFTD [SRPK2]	protein stability index	2.88
KESLCAKEEKCQGKGDDSETDKNN [KCNA4]	protein stability index	5.42
RRPHELLPVGGRLPGPTRPVLGRR [HAGHL]	protein stability index	4.92

Here is another sequence to look at.
# get_value(readout='protein stability index', item= CKRMDLVCQRMLNQGFLKVERYHN [FBXO28] )
2.1

---

Experiment: protein stability index of a GFP-peptide fusion (GPS, HEK-293T) (PSI 1-6); higher = more stable
Conditions: treatment: MLN4924 1 uM, 8 h; c terminus: a fixed tail appended
measure: protein stability index
Please give the numeric answer without any surrounding text.

Observe how each entry below is paired with its result.
construct sequence	reported value
GAGEGAAASPELSALEEAFRRFAV [TPPP]	3.74
LSRDTVQESYENVDSLESHIPSQE [ZNF263]	5.41
LELSCDKFPPEEELQREWLGNREA [CPN1]	5.11
GYRQQKAYIATQGPLAETTEDFWR [PTPRD]	3.36
VTSVSIELEKNFSNFPRQYFALRK [TRIM39]	2.5

# get_value(readout='protein stability index', item= EKRLEGQEEEEDNRDSSMKLSFRA [CHGA] )
5.19

Also KAVMKTSVLLSWEIPENYNSAMPF [PTPRD] , if possible.
2.26

---

Test: protein stability index of a GFP-peptide fusion (GPS, HEK-293T) (PSI 1-6); higher = more stable
Details: treatment: MLN4924 1 uM, 8 h; c terminus: a fixed tail appended
# binarize protein stability index: threshold 3 inclusive, high side T, low side F

Look over these answered cases.
construct sequence	class label
HKYNTTSTSYSPLASLPLKADTKG [PLAGL1]	T
PFNGDCRITKDNRRHCQACRLKRC [VDR]	T
MSERLRPRKRRRNGNEEDNHLPPQ [FAM104A]	T
CADVPLLTPSSKEMMSQALKATFS [ETS1]	F
QALLIRERILGPSHPDTSYYIRYR [FEM1A]	F

Pending sequence:
hey, is protein stability index for this one >= 3? SSWKHGSGTQYVSTRQTQSWTAVT [C18orf25]
F

Reference source for all entries: the supplement of paper PMC10567573
